- Assayed target: T1, α11β1 I Domain (Homo sapiens, UniProt Q9UKX5)
- T1 sequence (Q9UKX5 164-345 limits assumed): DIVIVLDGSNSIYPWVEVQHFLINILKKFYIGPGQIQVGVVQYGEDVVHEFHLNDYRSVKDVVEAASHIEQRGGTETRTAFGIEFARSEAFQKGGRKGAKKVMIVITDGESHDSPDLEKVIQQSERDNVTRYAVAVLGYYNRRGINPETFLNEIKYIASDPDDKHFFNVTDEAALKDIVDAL
- Test name: ELISA binding to in-house generated α11β1 I domain
- Design: An in-house generated I domain of α11β1 was used; made in house
- Condition info: in words
Reported endpoint: Binding to the I domain of α11β1

molecule="6E5C11: rat anti-α11β1 mAb; VH SEQ ID NO: 151, VL SEQ ID NO: 152 (antibody, V domains shown) VH: MAVLVLLLCLVTFPSCALSQVQLRESGPGLVQPSQTLSLTCTVSGFSLTSNSVTWVRQPPGKGLEWMGAIWSDGSTDYNSTLKSRLSISRDTSKSQVFLKMSSLQTEDTAIYFCTRSHWEPFDYWGQGVMVTVSS VL: MESQTQALISLLLWVYGTCGDIVMTQSPLSLAVSEGETVTMNCKSSQSLFSSGNQKNYLAWYQQKPGQSPKLLIYYASTRQSGVPDRFIGSGSGTDFTLTISDVQTEDLADYYCLQHYNYPPTFGSGTKLEIK" reported_endpoint="Binding to the I domain of α11β1" result_value=low
